Taken from PubChem BioAssay AID686978.

Assay: qHTS for Inhibitors of human tyrosyl-DNA phosphodiesterase 1 (TDP1): qHTS in cells in absence of CPT; further: nearly all actives have a fitted effect of over 55% in size
Conditions: DT40 Tdp1-/- hTDP1 cells, no CPT, ATP luminescence, 48 h
Screen size: about 420,000 compounds; about 64,000 (15%) were called active. Another 27% or so got no clear call; they are omitted. The call rests on the fitted dose curve; in most records, active means well fitted inhibition curve with a large enough effect; inconclusive means small, poorly fitted or top-dose-only effect; inactive means flat fitted curve, though single readings scatter. Only a sample is shown.
Pick one: 1 = active, 0 = inactive

compound: COc1cc(OC)cc(C(=O)Nc2ccc3nc(Nc4cccc(C(F)(F)F)c4)cc(C)c3c2)c1
class: 1

State the result this test recorded for CCOC(=O)c1ccccc1NC(=O)CSc1nc2ccccc2c(=O)[nH]1 . 0

State the result this test recorded for CCn1nnc(NC(=O)c2c(OC)cccc2OC)n1 . 0

State the result this test recorded for CN(C)CCN(C(=O)C1CCCCC1)c1nc2cc3c(cc2s1)OCO3 . 0
